# System under test: BTK (Homo sapiens (Human), UniProt Q06187)
# Sequence (Q06187 whole entry): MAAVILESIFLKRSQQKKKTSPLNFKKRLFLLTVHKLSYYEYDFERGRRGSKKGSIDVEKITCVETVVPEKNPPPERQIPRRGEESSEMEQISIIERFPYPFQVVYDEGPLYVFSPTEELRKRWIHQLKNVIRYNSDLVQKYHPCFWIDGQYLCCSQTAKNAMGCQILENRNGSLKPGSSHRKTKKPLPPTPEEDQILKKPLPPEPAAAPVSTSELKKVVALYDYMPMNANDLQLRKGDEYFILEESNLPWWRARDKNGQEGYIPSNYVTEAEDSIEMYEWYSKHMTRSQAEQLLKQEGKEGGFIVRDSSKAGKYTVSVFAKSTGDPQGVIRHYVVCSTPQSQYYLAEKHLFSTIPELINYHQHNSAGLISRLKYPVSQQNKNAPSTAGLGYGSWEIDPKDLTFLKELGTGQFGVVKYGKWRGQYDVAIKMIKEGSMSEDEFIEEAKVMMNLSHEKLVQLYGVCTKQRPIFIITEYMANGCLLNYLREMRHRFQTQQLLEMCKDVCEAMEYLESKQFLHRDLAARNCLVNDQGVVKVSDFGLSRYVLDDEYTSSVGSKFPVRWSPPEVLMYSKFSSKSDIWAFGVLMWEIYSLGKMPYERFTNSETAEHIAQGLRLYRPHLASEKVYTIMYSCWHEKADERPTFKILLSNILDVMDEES
# Assay protocol: Z'-LYTE kinase inhibition assay against BTK
# Format: biochemical
# Settings: compound at 100 nM; ATP concentration at Km
inhibition at 0.1 µM values by entry

[
  {
    "Compound": "C=CC(=O)N1CCCC(c2cc(-c3ccc(Oc4ccccc4)cc3)cc3cnc(N)nc23)C1 (stereo not drawn) [C028]",
    "System under test": "BTK (Homo sapiens (Human), UniProt Q06187)",
    "inhibition at 0.1 µM": "> 50%"
  },
  {
    "Compound": "C=CC(=O)Nc1cccc(-c2cc(-c3ccc(Oc4ncccc4F)cc3F)cc3cncnc23)c1 [C105]",
    "System under test": "BTK (Homo sapiens (Human), UniProt Q06187)",
    "inhibition at 0.1 µM": "> 50%"
  }
]

Would you kindly look at the next entry?
Measured inhibition at 0.1 µM for this entry C=CC(=O)N1CCCC(n2c(-c3ccccc3Cl)nc3cnc(N)nc32)C1 (stereo not drawn) [C027] on BTK (Homo sapiens (Human), UniProt Q06187): < 50%

----------
# System under test: BTK (Homo sapiens (Human), UniProt Q06187)
# Assay protocol: Z'-LYTE kinase inhibition assay against BTK
# Format: biochemical
# Settings: compound at 100 nM; ATP concentration at Km
# Protocol: Inhibitory activities of compounds against BTK, EGFR T790M, EGFR L858R, and EGFR L858R/T790M were measured using Z′-LYTE® Method from Life Technologies as briefly described in the following. Test Compounds are screened in 1% DMSO (final) in the well. For 10 point titrations, 3-fold serial dilutions are conducted from the starting concentration. All ATP Solutions are diluted to a 4× working concentration in Kinase Buffer (50 mM HEPES pH 7.5, 0.01% BRIJ-35, 10 mM MgCl2, 1 mM EGTA). […]
Reported endpoint: inhibition at 0.1 µM

[
  {
    "Molecule": "C=CC(=O)Nc1cccc(-c2cc(-c3ccc(Oc4ccccn4)cc3)c(N)c3cncnc23)c1",
    "inhibition at 0.1 µM": "< 50%"
  },
  {
    "Molecule": "C=CC(=O)Nc1cccc(-c2cc(-c3ccc(C(=O)Nc4cc(C#N)ccn4)cc3F)cc3cncnc23)c1",
    "inhibition at 0.1 µM": "> 50%"
  },
  {
    "Molecule": "C=CC(=O)Nc1cccc(-c2cc(-c3ccc(Oc4ccccn4)c(F)c3)cc3cncnc23)c1",
    "inhibition at 0.1 µM": "> 50%"
  },
  {
    "Molecule": "C=CC(=O)N1CCC(c2nc(-c3ccc(Oc4ccccn4)c(F)c3)n3c(N)nccc23)C1 (centres unmarked)",
    "inhibition at 0.1 µM": "> 50%"
  }
]

Would you kindly look at the next entry?
Measured inhibition at 0.1 µM for this entry C=CC(=O)Nc1cccc(-c2cc(-c3ccc(Oc4cccnc4)cc3)cc3cncnc23)c1 on BTK (Homo sapiens (Human), UniProt Q06187): > 50%

----------
# System under test: BTK (Homo sapiens (Human))
# Assay protocol: Z'-LYTE kinase inhibition assay against BTK
# Assay type: biochemical
# Settings: compound at 100 nM; ATP concentration at Km
# Protocol: Inhibitory activities of compounds against BTK, EGFR T790M, EGFR L858R, and EGFR L858R/T790M were measured using Z′-LYTE® Method from Life Technologies as briefly described in the following. Test Compounds are screened in 1% DMSO (final) in the well. For 10 point titrations, 3-fold serial dilutions are conducted from the starting concentration. All ATP Solutions are diluted to a 4× working concentration in Kinase Buffer (50 mM HEPES pH 7.5, 0.01% BRIJ-35, 10 mM MgCl2, 1 mM EGTA). […]
Reported endpoint: inhibition at 0.1 µM

[
  {
    "Molecule": "C=CC(=O)Nc1cccc(-c2cc(-c3ccc(C(=O)Nc4cc(C#N)ccn4)cc3)cc3cncnc23)c1 [C109]",
    "Recorded value": "< 50%"
  }
]

Measured inhibition at 0.1 µM for this entry C=CC(=O)Nc1cccc(-c2cc(-c3ccc(Oc4ccccn4)cc3)cc3cncnc23)c1 [C099] on BTK (Homo sapiens (Human)): > 50%

Measured inhibition at 0.1 µM for this entry C=CC(=O)N1CCC(c2ccc(-c3ccc(C(=O)Nc4ccccn4)cc3)c3c(N)ncnc23)C1 (stereo not shown) [C056] on BTK (Homo sapiens (Human)): < 50%

Measured inhibition at 0.1 µM for this entry C=CC(=O)Nc1cccc(-c2cc(-c3ccc(C(=O)Nc4ccccn4)c(F)c3)cc3cncnc23)c1 [C132] on BTK (Homo sapiens (Human)): > 50%
